Where do the numbers come from? From patent US9955691B2.

system: Mycosphaerella graminicola; Anamorph: Septoria tritici; assay: Fungicidal activity: Leaf Blotch of Wheat (SEPTTR); assay type: in vivo; settings: Zymoseptoria tritici, 24 h; Low Volume (121.5 g/H), 1 Day Protectant, wheat leaf blotch; read-out: SEPTTR 1 DP disease control
The reader will find reported pest or weed control at 121.5 g/ha values listed item by item below.

Quickly give me recorded pest or weed control at 121.5 g/ha for CCOCC(=O)OCOc1c(OC)ccnc1C(=O)N[C@H]1COC[C@H](Cc2ccccc2)[C@@H](c2ccccc2)[C@H](C)OC1=O [compound 51] > 70%

Next:
Quickly give me recorded pest or weed control at 121.5 g/ha for COc1ccnc(C(=O)N[C@H]2COC[C@H](CCC(C)C)[C@@H](Cc3ccccc3)[C@H](C)OC2=O)c1OC(C)=O [compound 46] > 70%

Quickly give me recorded pest or weed control at 121.5 g/ha for COc1ccnc(C(=O)N[C@H]2COC[C@H](Cc3ccccc3)[C@@H](Cc3ccccc3)[C@H](C)OC2=O)c1OC(C)=O [compound 27] > 70%

Quickly give me recorded pest or weed control at 121.5 g/ha for COc1ccnc(C(=O)N[C@H]2COC[C@H](CCCc3ccccc3)[C@@H](Cc3ccc(OC(F)(F)F)cc3)[C@H](C)OC2=O)c1OCOC(C)=O [compound 76] > 70%

Quickly give me recorded pest or weed control at 121.5 g/ha for CCOCC(=O)OCOc1c(OC)ccnc1C(=O)N[C@H]1COC[C@H](Cc2ccc(Cl)cc2)[C@@H](CC(C)C)[C@H](C)OC1=O [compound 74] > 70%

Quickly give me recorded pest or weed control at 121.5 g/ha for COc1ccnc(C(=O)N[C@H]2COC[C@H](Cc3ccccc3)[C@@H](C3CCCC3)[C@H](C)OC2=O)c1OC(C)=O [compound 37] > 70%

Quickly give me recorded pest or weed control at 121.5 g/ha for COc1ccnc(C(=O)N[C@H]2COC[C@H](Cc3ccc(Cl)cc3)[C@@H](C3CCCC3)[C@H](C)OC2=O)c1OC(=O)C(C)C [compound 87] > 70%

Quickly give me recorded pest or weed control at 121.5 g/ha for COc1ccnc(C(=O)N[C@H]2COC[C@H](Cc3ccc(Cl)cc3)[C@@H](C3CCCC3)[C@H](C)OC2=O)c1OC(C)=O [compound 86] > 70%

Quickly give me recorded pest or weed control at 121.5 g/ha for COc1ccnc(C(=O)N[C@H]2COC[C@H](Cc3ccccc3)[C@@H](CCc3ccccc3)[C@H](C)OC2=O)c1OCOC(=O)C(C)C [compound 31] > 70%

Quickly give me recorded pest or weed control at 121.5 g/ha for COc1ccnc(C(=O)N[C@H]2COC[C@H](Cc3ccccc3)[C@@H](Cc3ccc(F)cc3)[C@H](C)OC2=O)c1OCOC(C)=O [compound 61] > 70%

Quickly give me recorded pest or weed control at 121.5 g/ha for CCOCC(=O)OCOc1c(OC)ccnc1C(=O)N[C@H]1COC[C@H](CCCc2ccccc2)[C@@H](Cc2ccc(OC(F)(F)F)cc2)[C@H](C)OC1=O [compound 77] < 70%

Quickly give me recorded pest or weed control at 121.5 g/ha for COc1ccnc(C(=O)N[C@H]2COC[C@H](CCC(C)C)[C@@H](C3CCCC3)[C@H](C)OC2=O)c1OC(C)=O [compound 91] > 70%

Quickly give me recorded pest or weed control at 121.5 g/ha for COc1ccnc(C(=O)N[C@H]2COC[C@H](CCCc3ccccc3)[C@@H](Cc3ccccc3)[C@H](C)OC2=O)c1OCOC(=O)C(C)C [compound 43] > 70%
